Form field: MIC (one value per entry).
- System: Mycobacterium kansasii
- assay.method.text: Antimycobacterial activity against Mycobacterium kansasii 235/80 after 14 days by micromethod
- Type: functional
- condition.notes: 235/80, 336 h
endpoint.name: MIC (µM)

>>> df
                               smiles_record  numeric_readout
 0  CCCCCCCCCCCNC(=O)Oc1ccc(Cl)cc1C(=O)Nc1ccc(Cl)cc1                8
 1  CCCCCCCCCNC(=O)Oc1ccc(Cl)cc1C(=O)Nc1ccc(Cl)c(Cl)c1                8
 2  CCCCCCCNC(=O)Oc1ccc(Cl)cc1C(=O)Nc1ccc(Cl)c(Cl)c1                2
 3  CCCCCCCCNC(=O)Oc1ccc(Cl)cc1C(=O)Nc1cccc(Cl)c1                8
 4  CCCCNC(=O)Oc1ccc(Cl)cc1C(=O)Nc1ccc(Cl)cc1                4
 5  CCNC(=O)Oc1ccc(Cl)cc1C(=O)Nc1ccc(Cl)c(Cl)c1                2
 6  CCCCCNC(=O)Oc1ccc(Cl)cc1C(=O)Nc1ccc(Cl)cc1                2
 7  CCCCCCCCCCNC(=O)Oc1ccc(Cl)cc1C(=O)Nc1cccc(Cl)c1                8
 8  CCCCCCCCCCCNC(=O)Oc1ccc(Cl)cc1C(=O)Nc1cccc(Cl)c1                8
 9  CCCCCCNC(=O)Oc1ccc(Cl)cc1C(=O)Nc1ccc(Cl)c(Cl)c1                2
10  CCCCCCCCCNC(=O)Oc1ccc(Cl)cc1C(=O)Nc1ccc(Cl)cc1                4
11  CCCCCCCCCCNC(=O)Oc1ccc(Cl)cc1C(=O)Nc1ccc(Cl)c(Cl)c1                4
12  CCCCCCNC(=O)Oc1ccc(Cl)cc1C(=O)Nc1cccc(Cl)c1                4
13  CCCCCNC(=O)Oc1ccc(Cl)cc1C(=O)Nc1cccc(Cl)c1                8
14  CCCCCCCCCCNC(=O)Oc1ccc(Cl)cc1C(=O)Nc1ccc(Cl)cc1                8
15  CCCCCCNC(=O)Oc1ccc(Cl)cc1C(=O)Nc1ccc(Cl)cc1                4
16  CCCCCCCNC(=O)Oc1ccc(Cl)cc1C(=O)Nc1ccc(Cl)cc1                8
17  CCCCCCCNC(=O)Oc1ccc(Cl)cc1C(=O)Nc1cccc(Cl)c1                4
18  CCCCNC(=O)Oc1ccc(Cl)cc1C(=O)Nc1ccc(Cl)c(Cl)c1                2
19  CCCCNC(=O)Oc1ccc(Cl)cc1C(=O)Nc1cccc(Cl)c1               16
20  CCCCCNC(=O)Oc1ccc(Cl)cc1C(=O)Nc1ccc(Cl)c(Cl)c1                2
21   CCNC(=O)Oc1ccc(Cl)cc1C(=O)Nc1cccc(Cl)c1                8

###

Form field: logP (one value per entry).
- assay.method.text: Partition coefficient, log P of the compound
- Type: physicochemical
- condition.notes: octanol/water
endpoint.name: logP

>>> print(df.to_string())
                              smiles_record  endpoint_name  numeric_readout
0  CCCCCCCCNC(=O)Oc1ccc(Cl)cc1C(=O)Nc1cccc(Cl)c1           logP             6.36
1  CCCCCCCNC(=O)Oc1ccc(Cl)cc1C(=O)Nc1ccc(Cl)cc1           logP             5.94
2  CCCCCCCCCCCNC(=O)Oc1ccc(Cl)cc1C(=O)Nc1ccc(Cl)c(Cl)c1           logP             8.17
3  CCCCCCCNC(=O)Oc1ccc(Cl)cc1C(=O)Nc1cccc(Cl)c1           logP             5.94
4  CCCCCNC(=O)Oc1ccc(Cl)cc1C(=O)Nc1ccc(Cl)c(Cl)c1           logP             5.67
5  CCCCCNC(=O)Oc1ccc(Cl)cc1C(=O)Nc1ccc(Cl)cc1           logP             5.11
6  CCCCCCCCCCCNC(=O)Oc1ccc(Cl)cc1C(=O)Nc1ccc(Cl)cc1           logP             7.61
7  CCCCCCCCCCCNC(=O)Oc1ccc(Cl)cc1C(=O)Nc1cccc(Cl)c1           logP             7.61
8  CCCCCCCNC(=O)Oc1ccc(Cl)cc1C(=O)Nc1ccc(Cl)c(Cl)c1           logP              6.5
9  CCCCNC(=O)Oc1ccc(Cl)cc1C(=O)Nc1cccc(Cl)c1           logP             4.69
